Tested on: ivy-leaved morning glory (Ipomoea hederacea)
Experiment: Test G Post-Emergence Protocol
Type: in vivo
Details: Ipomoea, post-emergence, 312 h, 250 g ai/ha, evaluated after 13 days, read-out: damage to plant, Morningglory, Ivy-leaved (100=total damage to plant; 0=no damage to plant)
Below is a list of entries, each paired with its recorded pest or weed control at 250 g/ha value.
Field: value (include unit after the number)

Query: # get_value(readout='pest or weed control at 250 g/ha', item= CN1C[C@H](c2ccc3occc3c2)[C@@H](C(=O)Nc2cccc(F)c2F)C1=O (racemic) )
Result: 10%

Query: # get_value(readout='pest or weed control at 250 g/ha', item= COc1c(Cl)ccc([C@H]2CN(C)C(=O)[C@@H]2C(=O)Nc2cccc(F)c2F)c1F (racemic) )
Result: 60%

Query: # get_value(readout='pest or weed control at 250 g/ha', item= CN1C[C@H](c2ccc3c(c2)CCO3)[C@@H](C(=O)Nc2cccc(F)c2F)C1=O (racemic) )
Result: 40%

Query: # get_value(readout='pest or weed control at 250 g/ha', item= CN1C[C@@H](c2ccc(C(F)(F)F)cc2)[C@H](C(=O)Nc2ncc(C#N)s2)C1=O (racemic) )
Result: 0%

---

Below is a list of entries, each paired with its recorded plant injury at 62.5 g/ha value.
System: corn (Zea mays)
Test: Test G Pre-Emergence Protocol
Type: in vivo
Settings: Zea mays, pre-emergence, 312 h, 62.5 g ai/ha, evaluated after 13 days, 100=total damage to plant, 0=no damage to plant, read-out: Corn damage rating
Numeric only. Scale: %

CN1C[C@H](c2ccc(C(F)(F)F)cc2)[C@@H](C(=O)Nc2cc(C#N)ccn2)C1=O (racemic)    0
CN1C[C@H](c2cccc(C(F)(F)F)c2)[C@@H](C(=O)Nc2cccc3c2S(=O)(=O)CC3)C1=O (racemic)    0
CN1C[C@H](c2ccc(C(F)F)cc2)[C@@H](C(=O)Nc2cnccc2C(F)(F)F)C1=O (racemic)    20

Query: # get_value(readout='plant injury at 62.5 g/ha', item= CN1CC(c2cc(F)c(Cl)c(F)c2)C(C(=O)Nc2cccc(F)c2F)C1=O (stereo not shown) )
Result: 60

Query: # get_value(readout='plant injury at 62.5 g/ha', item= CC(C)S(=O)(=O)c1ccccc1NC(=O)[C@H]1C(=O)N(C)C[C@@H]1c1ccc(C(F)(F)F)cc1 (racemic) )
Result: 0

Query: # get_value(readout='plant injury at 62.5 g/ha', item= CC(C)OC(=O)c1cc([C@H]2CN(C)C(=O)[C@@H]2C(=O)Nc2ccccc2F)ccc1F (racemic) )
Result: 0

Query: # get_value(readout='plant injury at 62.5 g/ha', item= COc1ncc([C@@H]2CN(C)C(=O)[C@H]2C(=O)Nc2cccc(F)c2F)cc1Cl (racemic) )
Result: 60

---

Tested on: barnyardgrass (Echinochloa crus-galli)
Assay: Test A postemergence
Format: in vivo
Settings: 125 g ai/ha, postemergence; visual injury rating on 0 to 100 scale (0 no effect, 100 complete control), approx. 10 d
Below is a list of entries, each paired with its recorded Barnyardgrass plant response rating value.

Here's what some known entries look like.
CN1CC(c2ccc(C(F)(F)F)cc2F)C(C(=O)Nc2ccccc2F)C1=O (stereo not drawn) [Compound 476]    90
O=C1NCC(c2c(F)cccc2F)C1C(=O)Nc1ccc(F)cc1F (racemic) [Compound 517]    20

Please look at the following compound next.
Query: # get_value(readout='Barnyardgrass plant response rating', item= CC(C)c1ccc(C2CNC(=O)C2C(=O)Nc2cccc(F)c2F)cc1 (stereo not drawn) [Compound 470] )
Result: 60

---

Test system: barnyardgrass (Echinochloa crus-galli)
Assay: Test G Pre-Emergence Protocol
Format: in vivo
Conditions: Echinochloa crus-galli, pre-emergence, 312 h, 15.625 g ai/ha, evaluated after 13 days, read-out: Barnyardgrass damage rating (100=total damage to plant; 0=no damage to plant)
experimental.endpoint: pest or weed control at 15.625 g/ha (%)
Numeric only. Scale: %

CN1C[C@H](c2ccc(Cl)cc2)[C@@H](C(=O)Nc2cccnc2F)C1=O    60
Cc1cccc(NC(=O)[C@H]2C(=O)N(C)C[C@@H]2c2ccc(C(F)(F)F)cc2)[n+]1[O-] (racemic)    0
CN1C[C@H](c2cccc(C(F)(F)F)c2)[C@@H](C(=O)Nc2cc(O)ccc2F)C1=O (racemic)    0

Query: # get_value(readout='pest or weed control at 15.625 g/ha', item= CN1C[C@H](c2ccnc(C(C)(C)C)n2)[C@@H](C(=O)Nc2ccc(F)c(F)c2F)C1=O (racemic) )
Result: 0

Query: # get_value(readout='pest or weed control at 15.625 g/ha', item= CN1C[C@H](c2ccc(F)c(C#N)c2)[C@@H](C(=O)Nc2ccccc2S(C)(=O)=O)C1=O (racemic) )
Result: 0

Query: # get_value(readout='pest or weed control at 15.625 g/ha', item= CSc1ncccc1NC(=O)[C@H]1C(=O)N(C)C[C@@H]1c1ccc(C(F)(F)F)cc1 (racemic) )
Result: 0

---

Below is a list of entries, each paired with its recorded pest or weed control at 250 g/ha value.
System: ducksalad (Heteranthera limosa)
Experiment: Test B flooded paddy test
Type: in vivo
Conditions: Heteranthera limosa, Flood, 250 g ai/ha; scale of 0 to 100 where 0 is no effect and 100 is complete control; read-out: Ducksalad plant response rating
Numeric only. Scale: %

Here's what some known entries look like.
CN1C[C@H](c2cc(F)cc(Cl)c2)[C@@H](C(=O)Nc2cccc(F)c2F)C1=O [Compound 974]    100
CN1C[C@H](c2ccc(C(F)(F)F)cc2)[C@@H](C(=O)Nc2cccc(F)c2Br)C1=O [Compound 937]    45
O=C1NC[C@H](c2cc(C(F)(F)F)cs2)[C@H]1C(=O)Nc1ccccc1F [Compound 960]    100
O=C1NC[C@H](c2cncc(C(F)(F)F)c2)[C@H]1C(=O)Nc1ccccc1F [Compound 887]    65
CCc1cc(CC)cc([C@H]2CN(C)C(=O)[C@@H]2C(=O)Nc2ccccc2F)c1 [Compound 735]    40
CN1CC[C@H](c2ccc(F)cc2)[C@@H](C(=O)Nc2ccccc2F)C1=O [Compound 917]    40
COc1c(F)ccc([C@H]2CNC(=O)[C@@H]2C(=O)Nc2ccccc2F)c1Cl [Compound 881]    100
CN1C[C@H](c2ccc(C#N)cc2)[C@@H](C(=O)Nc2cccc(F)c2F)C1=O (racemic) [Compound 775]    75

Query: # get_value(readout='pest or weed control at 250 g/ha', item= O=C1NC[C@H](c2ccc3c(c2)CCO3)[C@H]1C(=O)Nc1ccccc1F [Compound 786] )
Result: 70

Query: # get_value(readout='pest or weed control at 250 g/ha', item= Cc1cc([C@H]2CN(C)C(=O)[C@@H]2C(=O)Nc2ccc(F)c(F)c2F)ccc1Cl [Compound 931] )
Result: 60

Query: # get_value(readout='pest or weed control at 250 g/ha', item= Cc1cc(F)cc([C@H]2CN(C)C(=O)[C@@H]2C(=O)Nc2cccc(F)c2C#N)c1 [Compound 800] )
Result: 95

Query: # get_value(readout='pest or weed control at 250 g/ha', item= COc1c(F)ccc([C@H]2CN(C)C(=O)[C@@H]2C(=O)Nc2ccc(F)cc2F)c1Cl [Compound 894] )
Result: 100

Query: # get_value(readout='pest or weed control at 250 g/ha', item= CCOc1ccc([C@H]2CN(C)C(=O)[C@@H]2C(=O)Nc2ccccc2F)cc1 [Compound 903] )
Result: 0

---

Below is a list of entries, each paired with its recorded pest or weed control at 15.625 g/ha value.
Test system: ivy-leaved morning glory (Ipomoea hederacea)
Test: Test G Pre-Emergence Protocol
Format: in vivo
Settings: Ipomoea, pre-emergence, 312 h, 15.625 g ai/ha, evaluated after 13 days, read-out: Morningglory, Ivy-leaved damage rating (100=total damage to plant; 0=no damage to plant)
Field: value (include unit after the number)

COc1cc(C2CN(C)C(=O)C2C(=O)Nc2cccc(F)c2F)cc(Cl)c1F (stereo not drawn)    0%
CN1C[C@H](c2ccc(Cl)cc2)[C@@H](C(=O)Nc2cnccc2C(F)(F)F)C1=O    0%
COc1ncc([C@@H]2CN(C)C(=O)[C@H]2C(=O)Nc2cccc(F)c2F)cc1Cl (racemic)    0%
CN1C[C@H](c2ccnc(C(C)(C)C)n2)[C@@H](C(=O)Nc2cccc(F)c2F)C1=O (racemic)    0%
Cc1cc(C2CN(C)C(=O)C2C(=O)Nc2cccc(F)c2F)cc(C(F)(F)F)c1 (stereo not drawn)    0%

Please look at the following compound next.
Query: # get_value(readout='pest or weed control at 15.625 g/ha', item= Cc1cc(C#N)cc(C2CN(C)C(=O)C2C(=O)Nc2cccc(F)c2F)c1 (stereo not drawn) )
Result: 0%
